Data credit: the NIST ThermoML archive (doi:10.1021/je900550v)

conditions: 331.41 K; 101.33 kPa; Liquid; Vibrating tube method
Numbers after ± are expanded uncertainties.
Parameter measured: mass density
// unit must come after the numeric part

Examples from the recorded data:
[
  {
    "Molecule": "CC(C)C(=O)[O-].C[NH2+]CCO [2-hydroxy-N-methylethanaminium isobutyrate]",
    "Parameter measured": "mass density",
    "Measurement": "1021.47 ± 2.2 kg/m3"
  },
  {
    "Molecule": "CCCCC(=O)[O-].C[NH2+]CCO [2-hydroxy-N-methylethanaminium pentanoate]",
    "Parameter measured": "mass density",
    "Measurement": "993.472 ± 2.1 kg/m3"
  },
  {
    "Molecule": "CCC(=O)[O-].C[NH2+]CCO [2-hydroxy-N-methylethanaminium propionate]",
    "Parameter measured": "mass density",
    "Measurement": "1049.22 ± 2.2 kg/m3"
  },
  {
    "Molecule": "C[NH2+]CCO.O=C[O-] [2-hydroxy-N-methylethanaminium formate]",
    "Parameter measured": "mass density",
    "Measurement": "1109.86 ± 2.2 kg/m3"
  },
  {
    "Molecule": "CCCC(=O)[O-].C[NH2+]CCO [N-methyl-2-hydroxyethylammonium butanoate]",
    "Parameter measured": "mass density",
    "Measurement": "1016.48 ± 2.2 kg/m3"
  }
]

Please turn your attention to the following entry.
Input line: Entry CC(=O)[O-].C[NH2+]CCO [N-methyl-2-hydroxyethylammonium acetate] : reported mass density = ?
Output line: 1080.45 ± 2.2 kg/m3

====

Reported speed of sound values are given for each entry in this list.
details: 316.91 K; 101.33 kPa; Liquid; Pulse-echo method
± gives the expanded uncertainty stated by the source.

Past entries and their recorded results:
[
  {
    "Compound": "CCC(=O)[O-].C[NH2+]CCO [2-hydroxy-N-methylethanaminium propionate]",
    "speed of sound": "1634.6 ± 2.1 m/s"
  },
  {
    "Compound": "CCCCC(=O)[O-].C[NH2+]CCO [2-hydroxy-N-methylethanaminium pentanoate]",
    "speed of sound": "1490.7 ± 2.1 m/s"
  },
  {
    "Compound": "C[NH2+]CCO.O=C[O-] [2-hydroxy-N-methylethanaminium formate]",
    "speed of sound": "1778.8 ± 2.2 m/s"
  },
  {
    "Compound": "CC(C)C(=O)[O-].C[NH2+]CCO [2-hydroxy-N-methylethanaminium isobutyrate]",
    "speed of sound": "1558.4 ± 2.1 m/s"
  }
]

Field: next compound
Input line: Sample CCCC(=O)[O-].C[NH2+]CCO [N-methyl-2-hydroxyethylammonium butanoate] — what was its speed of sound?
Output line: 1555.9 ± 2.1 m/s

====

settings: 310.91 K; 101.33 kPa; Liquid; Vibrating tube method
Numbers after ± are expanded uncertainties.
Listed below: mass density values for each entry.

Input line: Could you tell me which mass density is on file for CCC(=O)[O-].C[NH2+]CCO [2-hydroxy-N-methylethanaminium propionate] ?
Output line: 1062.98 ± 2.2 kg/m3

Input line: Note, next up: CCCCC(=O)[O-].C[NH2+]CCO [2-hydroxy-N-methylethanaminium pentanoate]
Output line: 1007.65 ± 2.1 kg/m3

Input line: Next record, please: C[NH2+]CCO.O=C[O-] [2-hydroxy-N-methylethanaminium formate]
Output line: 1121.13 ± 2.2 kg/m3

Input line: Continue with CC(C)C(=O)[O-].C[NH2+]CCO [2-hydroxy-N-methylethanaminium isobutyrate]
Output line: 1035.13 ± 2.2 kg/m3

Input line: What do you get for CC(=O)[O-].C[NH2+]CCO [N-methyl-2-hydroxyethylammonium acetate] ?
Output line: 1093.16 ± 2.2 kg/m3

Input line: Moving on to the next compound: CCCC(=O)[O-].C[NH2+]CCO [N-methyl-2-hydroxyethylammonium butanoate]
Output line: 1030.68 ± 2.2 kg/m3
